Biological target: HCV NS5B polymerase (Hepatitis C virus genotype 1b, UniProt Q9WMX2)
Construct: HCV NS5B was derived from a cDNA clone encoding HCV-1b CON1 strain, and was expressed and purified from E. coli; made in house; host or cells: E. coli
Sequence (Q9WMX2 2420-3010): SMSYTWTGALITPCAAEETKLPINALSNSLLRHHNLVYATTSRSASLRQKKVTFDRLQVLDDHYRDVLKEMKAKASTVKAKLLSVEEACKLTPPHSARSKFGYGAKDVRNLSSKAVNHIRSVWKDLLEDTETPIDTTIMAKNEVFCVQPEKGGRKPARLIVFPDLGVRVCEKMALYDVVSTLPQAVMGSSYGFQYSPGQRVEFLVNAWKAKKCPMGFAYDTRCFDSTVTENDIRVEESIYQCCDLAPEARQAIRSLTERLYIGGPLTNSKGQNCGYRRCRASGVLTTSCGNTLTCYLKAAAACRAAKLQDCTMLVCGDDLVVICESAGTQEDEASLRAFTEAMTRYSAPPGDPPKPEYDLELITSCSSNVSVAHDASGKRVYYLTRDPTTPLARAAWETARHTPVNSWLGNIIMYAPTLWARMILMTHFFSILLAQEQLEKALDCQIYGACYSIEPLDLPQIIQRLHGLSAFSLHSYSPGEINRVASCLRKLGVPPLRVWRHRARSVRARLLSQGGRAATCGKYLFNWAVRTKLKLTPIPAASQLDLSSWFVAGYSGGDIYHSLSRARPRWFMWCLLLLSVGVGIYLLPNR
Test: De novo RNA synthesis activity assay for HCV NS5B polymerase
Assay type: biochemical, HCV-1b CON1 strain
Conditions: NS5B 250 nM, 23C, 1 hr; second part of Table 1 (scaffold drawing 19); read-out: HCV NS5B (EC50)

{"Compound Structure": "O=C(N[C@@H](Cc1c[nH]c2ccc(O)cc12)C(=O)O)c1ccc2nc(-c3ccccc3)c(-c3ccccc3)nc2c1", "EC50": "> 50 µM"}
{"Compound Structure": "Cc1ccc(-c2nc3cc(C(=O)N[C@@H](Cc4c[nH]c5ccc(O)cc45)C(=O)O)ccc3nc2-c2ccc(Cl)cc2)cc1", "EC50": "< 10 µM"}
{"Compound Structure": "COC(=O)[C@H](Cc1c[nH]c2ccccc12)NC(=O)c1ccc2nc(-c3ccccc3)c(-c3ccccc3)nc2c1", "EC50": "> 50 µM"}
{"Compound Structure": "Cc1ccc(-c2nc3cc(C(=O)O)ccc3nc2-c2ccc(Cl)cc2)cc1", "EC50": "< 10 µM"}

###

Molecular target: HCV NS5B polymerase (Hepatitis C virus genotype 1b, UniProt Q9WMX2)
Construct: HCV NS5B was derived from a cDNA clone encoding HCV-1b CON1 strain, and was expressed and purified from E. coli
Experiment: De novo RNA synthesis activity assay for HCV NS5B polymerase
pIC50: −log10 of the molar value.
Endpoint Label: pIC50

{"Compound Structure": "O=C(N[C@@H](Cc1c[nH]c2ccc(O)cc12)C(=O)O)c1ccc2nc(-c3ccc(F)cc3)c(-c3ccc(F)cc3)nc2c1", "Target System": "HCV NS5B polymerase (Hepatitis C virus genotype 1b, UniProt Q9WMX2)", "Observed Result": "> 5.00"}
{"Compound Structure": "COC(=O)[C@H](Cc1c[nH]c2ccc(O)cc12)NC(=O)c1ccc2nc(-c3ccc(F)cc3)c(-c3ccc(F)cc3)nc2c1", "Target System": "HCV NS5B polymerase (Hepatitis C virus genotype 1b, UniProt Q9WMX2)", "Observed Result": "> 5.00"}
{"Compound Structure": "NC(=O)[C@H](Cc1c[nH]c2ccc(O)cc12)NC(=O)c1ccc2nc(-c3ccc(F)cc3)c(-c3ccc(F)cc3)nc2c1", "Target System": "HCV NS5B polymerase (Hepatitis C virus genotype 1b, UniProt Q9WMX2)", "Observed Result": "> 5.00"}

###

Target: HCV NS5B polymerase (Hepatitis C virus genotype 1b)
Construct: HCV NS5B was derived from a cDNA clone encoding HCV-1b CON1 strain, and was expressed and purified from E. coli; made in house; host or cells: E. coli
Test: De novo RNA synthesis activity assay for HCV NS5B polymerase
Assay type: biochemical, HCV-1b CON1 strain
pEC50: −log10 of the molar value.

{"Compound Structure": "COC(=O)[C@H](Cc1c[nH]c2ccccc12)NC(=O)c1ccc2nc(-c3ccccn3)c(-c3ccccn3)nc2c1", "pEC50": "< 4.30"}
{"Compound Structure": "O=C(O)c1ccc2nc(-c3ccccc3)c(-c3ccccc3)nc2c1", "pEC50": "> 5.00"}
{"Compound Structure": "O=C(O)c1ccc2nc(-c3ccccn3)c(-c3ccccn3)nc2c1", "pEC50": "< 4.30"}
{"Compound Structure": "O=C(N[C@@H](Cc1c[nH]c2ccccc12)C(=O)O)c1ccc2nc(-c3ccccc3)c(-c3ccccc3)nc2c1", "pEC50": "4.30 to 5.00"}
{"Compound Structure": "COC(=O)c1ccc2nc(-c3ccc(F)cc3)c(-c3ccc(F)cc3)nc2c1", "pEC50": "< 4.30"}
{"Compound Structure": "O=C(N[C@@H](Cc1c[nH]c2ccccc12)C(=O)O)c1ccc2nc(-c3ccccn3)c(-c3ccccn3)nc2c1", "pEC50": "< 4.30"}
